Hi there, I'd appreciate the recorded Kd for every entry that follows.
Target: T1, hLTBP3-proTGFβ1 (human, UniProt Q9NS15 44-1303; P01137 30-390, limits assumed)
T1 construct: LLC as m1; Same id used for the cell-made complex in reporter assays; also called human LTBP3-proTGFβ1 complex; LTBP3-ProTGFb1
T1 sequence (Q9NS15 44-1303 limits assumed, chain 1 of 2): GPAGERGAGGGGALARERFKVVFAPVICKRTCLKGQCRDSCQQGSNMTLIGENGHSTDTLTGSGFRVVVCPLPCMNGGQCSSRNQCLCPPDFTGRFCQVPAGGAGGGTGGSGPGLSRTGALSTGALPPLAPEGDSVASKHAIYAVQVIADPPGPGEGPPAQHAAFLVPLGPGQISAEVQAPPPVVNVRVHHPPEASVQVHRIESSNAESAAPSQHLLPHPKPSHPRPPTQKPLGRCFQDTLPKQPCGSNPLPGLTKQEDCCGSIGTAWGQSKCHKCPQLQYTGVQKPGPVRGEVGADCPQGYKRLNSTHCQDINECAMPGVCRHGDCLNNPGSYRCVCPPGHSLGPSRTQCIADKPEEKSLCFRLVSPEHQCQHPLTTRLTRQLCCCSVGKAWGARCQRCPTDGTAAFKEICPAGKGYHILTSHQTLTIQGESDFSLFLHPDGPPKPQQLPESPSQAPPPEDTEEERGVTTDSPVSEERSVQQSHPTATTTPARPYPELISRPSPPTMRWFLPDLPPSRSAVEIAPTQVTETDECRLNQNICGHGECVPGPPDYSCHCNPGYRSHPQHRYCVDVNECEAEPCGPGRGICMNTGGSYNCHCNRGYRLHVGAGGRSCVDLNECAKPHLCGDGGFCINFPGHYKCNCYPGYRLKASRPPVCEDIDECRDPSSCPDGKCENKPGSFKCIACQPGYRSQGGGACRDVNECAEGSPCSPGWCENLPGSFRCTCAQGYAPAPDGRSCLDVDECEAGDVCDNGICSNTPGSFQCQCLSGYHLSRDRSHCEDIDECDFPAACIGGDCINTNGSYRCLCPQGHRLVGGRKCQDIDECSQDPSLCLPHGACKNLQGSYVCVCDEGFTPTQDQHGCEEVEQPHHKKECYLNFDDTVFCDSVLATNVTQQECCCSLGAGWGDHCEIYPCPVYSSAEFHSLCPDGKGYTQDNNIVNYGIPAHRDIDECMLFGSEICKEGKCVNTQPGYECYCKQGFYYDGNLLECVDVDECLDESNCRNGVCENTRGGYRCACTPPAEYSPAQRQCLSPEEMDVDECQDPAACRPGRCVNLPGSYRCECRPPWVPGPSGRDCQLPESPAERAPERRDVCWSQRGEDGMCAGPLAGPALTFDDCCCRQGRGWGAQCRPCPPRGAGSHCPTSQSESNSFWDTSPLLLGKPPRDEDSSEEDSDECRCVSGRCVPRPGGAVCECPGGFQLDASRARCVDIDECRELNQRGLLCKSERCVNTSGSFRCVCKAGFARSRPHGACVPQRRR
T1 sequence (P01137 30-390 limits assumed, chain 2 of 2): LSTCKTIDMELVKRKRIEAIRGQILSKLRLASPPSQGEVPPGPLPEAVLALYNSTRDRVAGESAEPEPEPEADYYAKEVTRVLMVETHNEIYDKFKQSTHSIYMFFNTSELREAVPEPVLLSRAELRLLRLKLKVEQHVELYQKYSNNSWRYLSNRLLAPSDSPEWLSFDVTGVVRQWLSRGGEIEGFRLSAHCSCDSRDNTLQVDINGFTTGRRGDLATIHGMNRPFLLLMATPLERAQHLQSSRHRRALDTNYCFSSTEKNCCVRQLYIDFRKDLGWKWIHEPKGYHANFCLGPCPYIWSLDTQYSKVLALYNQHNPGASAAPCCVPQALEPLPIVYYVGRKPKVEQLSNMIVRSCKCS
Experiment: MSD-SET, hIgG4
Kindly provide the numeric value in pM only, without the unit symbol.

Kd in this record for Ab6 (antibody, V domains shown, Fully human IgG4/kappa) VH: EVQLVESGGGLVQPGGSLRLSCTASGFTFSSFSMDWVRQAPGKGLEWVSYISPSADTIYYADSVKGRFTISRDNAKNTLYLQMNSLRAEDTAVYYCARGVLDYGDMLMPWGQGTLVTVSS VL: DIQMTQSPSSLSASVGDRVTITCQASQDITNYLNWYQQKPGKAPKLLIYDASNLETGVPSRFSGSGSGTDFTFTISSLQPEDIATYYCQQADNHPPWTFGGGTKVEIKR : 29

Kd in this record for Ab4 (antibody, V domains shown) VH: EVQLVESGGGLVQPGGSLRLSCAASGFTFSSYSMNWVRQAPGKGLEWVSYISSSSSTIYYADSVKGRFTISRDNAKNSLYLQMNSLRAEDTAVYYCARGVLDYGDMLDPWGQGTLVTVSS VL: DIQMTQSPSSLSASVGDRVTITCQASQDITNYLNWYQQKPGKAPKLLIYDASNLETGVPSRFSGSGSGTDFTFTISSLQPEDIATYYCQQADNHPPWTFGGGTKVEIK : 5500

Kd in this record for Ab30 (antibody, V domains shown) VH: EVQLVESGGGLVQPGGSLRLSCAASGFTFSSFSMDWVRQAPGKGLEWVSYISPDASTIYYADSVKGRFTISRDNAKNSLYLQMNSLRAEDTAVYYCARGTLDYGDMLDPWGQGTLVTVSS VL: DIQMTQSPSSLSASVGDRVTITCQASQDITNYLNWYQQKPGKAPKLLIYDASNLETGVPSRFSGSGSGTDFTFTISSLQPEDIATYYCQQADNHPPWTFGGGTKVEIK : 26
